# tested.on: T1, HTRA4, P83105
# T1 sequence (P83105 378-476, limits assumed, looked up): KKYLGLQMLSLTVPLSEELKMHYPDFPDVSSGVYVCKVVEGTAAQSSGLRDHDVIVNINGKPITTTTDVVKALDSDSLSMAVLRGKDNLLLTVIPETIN
# method.notes: holdup assay
# Parameters: key: below the threshold = too weak to quantify, mostly under pKd 3.1 to 4
# run.parameters: plain residues with an end cap or a label only (N-terminal biotin on a linker: ado-ado)

# binder, pKd
data = [
    ("QKASRNESTF [POLR1D, P0DPB6]", "below the threshold"),
    ("NKSEPFLTWL [WWTR1, Q9GZV5]", 4.6),
    ("QLKSGRDSTV [TMEM178A, Q8NBL3]", "below the threshold"),
    ("KEKASTETEC [TRPM1, Q7Z4N2]", "below the threshold"),
]
